Tested on: Enterococcus faecium
test-description: Antibacterial activity against t Enterococcus faecium after 20 hrs by NCCLS-based two-fold broth dilution method
Format: functional
Please provide measured MIC for the entries that follow.
# number only, unit µg/mL dropped from output

Which value of MIC has been reported for CCCCCCCCCCCCCCCC(=O)N[C@H]1CCN[C@H]([C@@H](O[C@@H]2O[C@H](CN)[C@@H](O)[C@H]2O)[C@H]2O[C@@H](n3ccc(=O)[nH]c3=O)[C@H](O)[C@@H]2O)C1 in the records?
32

Which value of MIC has been reported for CCCCCCCCCCCCCCCC(=O)N[C@H]1CCN[C@H]([C@H](O[C@@H]2O[C@H](CN)[C@@H](O)[C@H]2O)[C@H]2O[C@@H](n3ccc(=O)[nH]c3=O)[C@H](O)[C@@H]2O)C1 in the records?
8

Which value of MIC has been reported for CCCCCCCCCCCCCCCCC[C@@H]1CN[C@@H]([C@H](O[C@@H]2O[C@H](CN)[C@@H](O)[C@H]2O)[C@H]2O[C@@H](n3ccc(=O)[nH]c3=O)[C@H](O)[C@@H]2O)C(=O)N(C)[C@@H]1C(=O)O in the records?
8

Which value of MIC has been reported for CCCCCCCCCCCCCCCC(=O)N[C@@H]1CCN[C@@H]([C@@H](O[C@@H]2O[C@H](CN)[C@@H](O)[C@H]2O)[C@H]2O[C@@H](n3ccc(=O)[nH]c3=O)[C@H](O)[C@@H]2O)C1 in the records?
32

Which value of MIC has been reported for CCCCCCCCCCCCCCCC(=O)N[C@@H]1CCN[C@@H]([C@H](O[C@@H]2O[C@H](CN)[C@@H](O)[C@H]2O)[C@H]2O[C@@H](n3ccc(=O)[nH]c3=O)[C@H](O)[C@@H]2O)C1 in the records?
2

Which value of MIC has been reported for CCCCCCCCCCCCCC(=O)N[C@@H]1CCN[C@@H]([C@H](O[C@@H]2O[C@H](CN)[C@@H](O)[C@H]2O)[C@H]2O[C@@H](n3ccc(=O)[nH]c3=O)[C@H](O)[C@@H]2O)C1 in the records?
16

Which value of MIC has been reported for CCCCCCCCC(CCCCCCCC)C(=O)N[C@@H]1CCN[C@@H]([C@H](O[C@@H]2O[C@H](CN)[C@@H](O)[C@H]2O)[C@H]2O[C@@H](n3ccc(=O)[nH]c3=O)[C@H](O)[C@@H]2O)C1 in the records?
8
